tested on: CTK; construct: gene MATK; conditions: concentration: 1 μM, replicates: in singlicate; n = 1;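 note: KINOMEscan kinase panel screen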
Experimental Readout: %Inh (%)
Give bare numbers, in %.

Reference set, count: 4
Req: Provide one value: measured %Inh of "Cc1ccc(NC(=O)c2cccc(C#N)c2)cc1-c1ccc(C(=O)Nc2ccncc2)cc1"
Resp: 19

Req: Complete the entry with %Inh for "COC(=O)c1c(-c2ccccc2)c2cc(Cl)ccc2c(=O)n1Cc1ccc(S(C)(=O)=O)cc1"
Resp: 3

Req: Look up and state reported %Inh for "Nc1nc(-c2ccccn2)c(-c2ccnc3ccccc23)s1"
Resp: 0

Req: Supply reported %Inh belonging to this compound: "Cc1ccc(O)cc1Nc1cc(C(F)(F)F)nc2ccc(-c3ccncc3)cc12"
Resp: 2

Below is a list of compounds. For each, state its recorded %Inh.
1. O=C(c1ccc(-c2cc(-c3c[nH]nc3-c3ccccn3)ccn2)cc1)N1CCCC1
2. O=C(Nc1ccccc1F)NC1CCN(c2ccnc(Nc3ccc(F)cc3)n2)C1 (stereo not shown)
3. CCn1c(-c2ccncc2)nc2cnccc21
4. Cc1cccc(-c2nc(Nc3ccc4[nH]nnc4c3)c3ccccc3n2)n1
5. Nc1n[nH]c2nnc(-c3ccccc3)cc12
6. CN1CCC(n2cnc(-c3ccc(F)cc3)c2-c2ccnc(NC3CCNCC3)n2)CC1

Resp:
0
0
11
10
0
9

Below are 3 compounds. Give each one its %Inh.
1. N#Cc1ccc(Oc2ccc(Nc3ncnc4cc[nH]c34)cc2Cl)cc1
2. CCc1nc(-c2cccc(C)c2)c(-c2ccnc(NC(=O)c3ccccc3)c2)s1
3. COC(=O)c1cccc(NC(=O)NCCNc2ccnc(Nc3ccc(F)cc3)n2)c1

Resp:
5
0
0

* * *

I'd appreciate it if you could supply %Inh values for the items below.
tested on: PLK4; conditions: concentration: 1 μM, replicates: in singlicate; n = 1
Answers are plain numbers, in %.

Recorded %Inh, per entry:
Req: Tell me measured %Inh for FC(F)(F)c1ccc(-c2nn3ncccc3c2-c2ccnc(Nc3cccc(C(F)(F)F)c3)n2)cc1 [GW828205] please.
Resp: 0

Req: Supply reported %Inh belonging to this compound: Nc1nc(-c2ccc3c(N)n[nH]c3c2)cc(N2CCCCC2)n1 [GSK2228768]
Resp: 0

Req: Output %Inh of Nc1nccc2scc(-c3ccc4c(c3)CCN4C(=O)Cc3cc(F)ccc3F)c12 [GSK2587663]
Resp: 0

Batch lookup, %Inh per entry.
1. Oc1ccc2ncnc(Nc3ccc(OCc4ccccc4)cc3)c2c1 [GI262866]
2. CCn1c(-c2ccncc2)nc2cnccc21 [SB-735216]
3. NC(=O)c1sc(-n2cnc3ccccc32)cc1OCc1ccccc1F [GSK1024306]
4. Cn1ccc2ncnc(Oc3ccc(NC(=O)Nc4cccnc4)c(Cl)c3)c21
5. FC(F)(F)c1cc(Nc2nccc(-c3c(-c4ccc(Cl)cc4)nn4ncccc34)n2)ccc1Cl [GW829351]
6. CN1c2ccc(-c3ccc(C(=O)NCCO)cc3)cc2-c2[nH]ncc2S1(=O)=O

Resp:
1: 0; 2: 0; 3: 0; 4: 11; 5: 7; 6: 25

* * *

What %Inh was measured for each of the following?
tested on: PHKG1; conditions: concentration: 1 μM, replicates: in singlicate; n = 1
Answers are plain numbers, in %.

Look over these answered cases.
Req: Give the reported value of %Inh for this record: "COc1ccc(-c2oc3ncnc(N)c3c2-c2ccc(OC)cc2)cc1"
Resp: 0

Req: Give the reported %Inh for this compound. "CS(=O)(=O)CCNCc1ccc(-c2ccc3ncnc(Nc4ccc(OCc5ccccc5)c(Cl)c4)c3c2)o1.Cl"
Resp: 13

Req: Complete the entry with %Inh for "Fc1ccc(Nc2nccc(-c3c(-c4ccc(Cl)cc4)nn4ncccc34)n2)cc1F"
Resp: 7

Field: %Inh. Fill in for each record below.
1. CCn1c(-c2ccncc2)nc2cnccc21
2. FC(F)(F)c1ccc(-c2cc(-c3c[nH]nc3-c3ccccn3)ccn2)cc1
3. Cn1ccc2ncnc(Nc3ccc(Oc4cccc(Cl)c4)c(Cl)c3)c21
4. Cl.c1ccc(Cn2ccc3cc(Nc4ncnc5ccccc45)ccc32)cc1
5. COC(=O)c1cccc(NC(=O)NCCNc2ccnc(Nc3ccc(F)cc3)n2)c1

Resp:
[3, 0, 0, 0, 0]

* * *

So I've got a bunch of molecules here, and I need their %Inh values.
tested on: BMPR2; settings: concentration: 1 μM, replicates: in singlicate; n = 1
Numbers only, in %.

For the 3 molecules below, give their %Inh values.
1. N#Cc1ccc(Oc2ccc(Nc3ncnc4cc[nH]c34)cc2Cl)cc1
2. O=C(Nc1ccccc1)Nc1ccc(Oc2ccc3nccn3n2)cc1
3. COc1ccc(-c2oc3ncnc(N)c3c2-c2ccc(OC)cc2)cc1

Resp:
[25, 0, 30]

Okay, here is my list. What is %Inh for each of these?
1. COC(=O)c1c(-c2ccccc2)c2cc(Cl)ccc2c(=O)n1Cc1ccc(S(C)(=O)=O)cc1
2. FC(F)(F)c1ccc(-c2cc(-c3c[nH]nc3-c3ccccn3)ccn2)cc1
3. Nc1n[nH]c2nnc(-c3ccccc3)cc12
4. COc1cc2c(Nc3cccc(NC(=O)c4ccccc4)c3)ncnc2cc1OCCCN1CCOCC1
5. O=C(c1ccc(-c2cc(-c3c[nH]nc3-c3ccccn3)ccn2)cc1)N1CCCC1
6. Clc1cc(Nc2ncnc3cc[nH]c23)ccc1OCc1ccccn1
7. O=C(Nc1ccccc1F)NC1CCN(c2ccnc(Nc3ccc(F)cc3)n2)C1 (stereo not shown)

Resp:
0
25
0
0
0
17
13

Give %Inh for all molecules that follow.
1. Nc1nc(-c2ccccn2)c(-c2ccnc3ccccc23)s1
2. CNc1nccc(-c2c(-c3ccc(F)cc3)ncn2CCCN2CCOCC2)n1

Resp:
1. 32
2. 30

For each of the molecules below, note its %Inh.
1. CCCc1ccc(S(=O)(=O)NC2CCN(c3ccnc(Nc4ccc(OC)cc4)n3)C2)cc1 (stereo not shown)
2. Oc1ccc2ncnc(Nc3ccc(OCc4ccccc4)cc3)c2c1
3. Cc1ccc(C)c(NC(=O)NCCNc2ccnc(Nc3ccc(F)cc3)n2)c1
4. Nc1nccc2scc(-c3ccc4c(c3)CCN4C(=O)Cc3cc(F)ccc3F)c12
5. Clc1cccc(-c2nc(Nc3ccncc3)c3ccccc3n2)c1
6. O=c1cc(N2CCOCC2)nc2n(Cc3cccc(Cl)c3)ccn12

Resp:
1: 8; 2: 0; 3: 0; 4: 0; 5: 10; 6: 0

Parameter requested: %Inh. Apply to each item below.
1. c1ccc(-c2ccc3c(-c4ccnc(Nc5ccc6c(c5)OCCO6)n4)cnn3n2)cc1
2. COc1ccc(Nc2nccc(N3CCC(NC(=O)Nc4ccc5c(c4)OCO5)C3)n2)cc1 (stereo not shown)
3. Nc1nc(-c2ccc3c(N)n[nH]c3c2)cc(N2CCC[C@@H](C(=O)Nc3ccccc3)C2)n1.O=C(O)C(F)(F)F.O=C(O)C(F)(F)F
4. Cl.Fc1ccccc1COc1ccc(Nc2ncnc3ccc(-c4nnc(C(F)(F)F)o4)cc23)cc1Cl

Resp:
1. 12
2. 23
3. 10
4. 5

Record %Inh per entry; entries follow.
1. Cc1ccc(NC(=O)c2cccc(C#N)c2)cc1-c1ccc(C(=O)Nc2ccncc2)cc1
2. Cl.c1ccc(Cn2ncc3cc(Nc4ncnc5ccccc45)ccc32)cc1
3. Cn1ccc2ncnc(Nc3ccc(Oc4cccc(Cl)c4)c(Cl)c3)c21

Resp:
0
0
29

Provide each entry's %Inh from the list below.
1. Nc1nc(-c2cccnc2)c(-c2ccnc3ccccc23)s1
2. COc1ccc(NC(=O)c2ccc(-c3cc(-c4nnc(C)o4)ccc3C)cc2)cc1
3. Cl.O=S(=O)(c1cccc(F)c1)c1ccc(Nc2ncnc3cc(Br)sc23)cc1Cl
4. COc1cc2ncnc(Nc3ccc(OCc4ccccc4Br)c(Cl)c3)c2cc1OC.Cl
5. Cc1cc(N2CCC(NS(=O)(=O)c3ccc(F)cc3)CC2)nc(Nc2cccc(C#N)c2)n1.O=C(O)C(F)(F)F
6. COC(=O)c1cccc(NC(=O)NCCNc2ccnc(Nc3ccc(F)cc3)n2)c1
7. Fc1ccc(Nc2nccc(-c3c(-c4ccc(Cl)cc4)nn4ncccc34)n2)cc1F
8. Cc1cccc(-c2nc(Nc3ccc4[nH]nnc4c3)c3ccccc3n2)n1

Resp:
[28, 0, 0, 15, 0, 0, 32, 8]

For each of the molecules below, note its %Inh.
1. CN1CCC(n2cnc(-c3ccc(F)cc3)c2-c2ccnc(NC3CCNCC3)n2)CC1
2. CC(C)(C)c1ccc(-n2cnc3c(N)ncnc32)cc1
3. CSc1ccc(NC2=C(c3ccccc3Cl)C(=O)NC2=O)cc1
4. Cl.Cn1ccc(-c2cccc(Nc3ccnc4cc(-c5nccs5)ccc34)c2)n1

Resp:
[1, 6, 5, 16]

* * *

tested on: ACVR2A; settings: concentration: 1 μM, replicates: in singlicate; n = 1
Experimental Readout: %Inh (%)
One number for each entry, in %.

Worked examples follow.
Req: Give recorded %Inh. Nc1nc(-c2cccnc2)c(-c2ccnc3ccccc23)s1 [GW684083]
Resp: 0

Req: Please list %Inh recorded for the compound "CCc1nc(-c2cccc(C)c2)c(-c2ccnc(NC(=O)c3ccccc3)c2)s1"
Resp: 0

Req: Supply reported %Inh belonging to this compound: Nc1nc(-c2ccccn2)c(-c2ccnc3ccccc23)s1 [GW548057]
Resp: 0

Req: Supply recorded %Inh for "O=C(Nc1ccccc1)Nc1ccc(Oc2ccc3nccn3n2)cc1" here.
Resp: 24

Req: Input CC(C)(C)OC(=O)NC1CCCN(c2cc(-c3ccc4c(N)n[nH]c4c3)nc(N)n2)C1 (stereo not drawn) [GSK2286096] , output reported %Inh.
Resp: 0

Req: Supply reported %Inh belonging to this compound: Cn1cc(-c2ccc3c(c2)CCN3C(=O)Cc2cccc(C(F)(F)F)c2)c2c(N)ncnc21 [GSK2606414]
Resp: 0

Req: Could you please provide reported %Inh for CNc1nccc(-c2c(-c3ccc(F)cc3)ncn2CCCN2CCOCC2)n1 [SB-222516] ? Thanks!
Resp: 4

Req: Name the recorded %Inh of the compound listed here: CSc1nn2c(=O)cc(N3CCOCC3)nc2n1Cc1cccc(Cl)c1Cl [GSK2347225]
Resp: 0

Continuing:
Req: Given the compound Cc1ccc(NC(=O)c2cccc(C#N)c2)cc1-c1ccc(C(=O)Nc2ccncc2)cc1 [GSK1398463] , write its reported %Inh.
Resp: 0
